Molecular target: Orexin receptor type 2 (Homo sapiens, UniProt O43614)
Sequence (O43614 whole entry): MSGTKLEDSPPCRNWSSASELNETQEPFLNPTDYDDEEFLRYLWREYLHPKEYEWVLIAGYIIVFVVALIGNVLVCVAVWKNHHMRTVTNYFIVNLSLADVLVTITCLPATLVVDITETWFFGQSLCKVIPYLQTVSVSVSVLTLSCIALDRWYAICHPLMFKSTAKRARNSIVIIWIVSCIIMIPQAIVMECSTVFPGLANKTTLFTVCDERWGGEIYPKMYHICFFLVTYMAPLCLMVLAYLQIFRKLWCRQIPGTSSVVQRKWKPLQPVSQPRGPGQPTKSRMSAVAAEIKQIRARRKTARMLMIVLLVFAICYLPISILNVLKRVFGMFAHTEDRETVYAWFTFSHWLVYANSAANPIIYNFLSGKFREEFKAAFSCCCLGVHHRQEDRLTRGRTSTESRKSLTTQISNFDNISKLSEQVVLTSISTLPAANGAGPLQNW
Experiment: Antagonist activity at human OX2R expressed in CHOK1 cells assessed as inhibition of orexin A-induced intracellular calcium level preincubated for 15 mins followed by orexin A addition by Fura-2-AM dye based fluorescence assay
Format: cell-based
Details: read-out: Ki
property_label: Ki (nM)

[[record]]
test_smiles = "COc1ccc2c3c1O[C@H]1[C@H](N(C)C(=O)/C=C/c4ccoc4)CC[C@@]4(O)[C@@H](C2)N(C(=O)c2ccc(C)cc2)CC[C@]314"
quantitative_readout = 725

[[record]]
test_smiles = "Cc1cc(NC(=O)Nc2ccc(N(C)C)cc2)c2cc(F)cc(F)c2n1.Cl.Cl"
quantitative_readout = 2070


* * *

Target: Orexin/Hypocretin receptor type 1 (Homo sapiens)
Test: Antagonist activity at human OX1R expressed in CHOK1 cells assessed as inhibition of orexin A-induced intracellular calcium level preincubated for 15 mins followed by orexin A addition by Fura-2-AM dye based fluorescence assay
pKi: −log10 of the molar value.
property_label: pKi

[[record]]
test_smiles = "COc1ccc(S(=O)(=O)N2CC[C@]34c5c6ccc(OC)c5O[C@H]3[C@H](N(C)C(=O)/C=C/c3ccoc3)CC[C@@]4(O)[C@H]2C6)cc1"
quantitative_readout = 8.05

[[record]]
test_smiles = "COc1ccc2c3c1O[C@H]1[C@H](N(C)C(=O)/C=C/c4ccoc4)CC[C@@]4(O)[C@@H](C2)N(S(=O)(=O)c2ccc(C(F)(F)F)cc2)CC[C@]314"
quantitative_readout = 7.90

[[record]]
test_smiles = "COc1ccc2c3c1O[C@H]1[C@H](N(C)C(=O)/C=C/c4ccoc4)CC[C@@]4(O)[C@@H](C2)N(S(=O)(=O)c2cccc(C#N)c2)CC[C@]314"
quantitative_readout = 8.14

[[record]]
test_smiles = "CN(C)c1ccc(S(=O)(=O)N2CC[C@]34c5c6ccc(O)c5O[C@H]3[C@H](N(C)C(=O)/C=C/c3ccoc3)CC[C@@]4(O)[C@H]2C6)cc1"
quantitative_readout = 6.49

[[record]]
test_smiles = "COc1ccc2c3c1O[C@H]1[C@H](N(C)C(=O)/C=C/c4ccoc4)CC[C@@]4(O)[C@@H](C2)N(C(C)=O)CC[C@]314"
quantitative_readout = 6.27

[[record]]
test_smiles = "Cc1cc(NC(=O)Nc2ccc(N(C)C)cc2)c2cc(F)cc(F)c2n1.Cl.Cl"
quantitative_readout = 7.72

[[record]]
test_smiles = "COc1ccc2c3c1O[C@H]1[C@H](N(C)C(=O)/C=C/c4ccoc4)CC[C@@]4(O)[C@@H](C2)N(S(=O)(=O)c2ccc([N+](=O)[O-])cc2)CC[C@]314"
quantitative_readout = 7.90

[[record]]
test_smiles = "COc1ccc2c3c1O[C@H]1[C@H](N(C)C(=O)/C=C/c4ccoc4)CC[C@@]4(O)[C@@H](C2)N(S(=O)(=O)c2cccc(N(C)C)c2)CC[C@]314.Cl"
quantitative_readout = 8.14

[[record]]
test_smiles = "CN(C(=O)/C=C/c1ccccc1)[C@@H]1CC[C@@]2(O)[C@H]3Cc4ccc(O)c5c4[C@@]2(CCN3CC2CC2)[C@H]1O5.Cl"
quantitative_readout = 6.41

[[record]]
test_smiles = "COc1ccc2c3c1O[C@H]1[C@H](N(C)C(=O)/C=C/c4ccoc4)CC[C@@]4(O)[C@@H](C2)N(S(=O)(=O)c2ccccc2[N+](=O)[O-])CC[C@]314"
quantitative_readout = 8.74

[[record]]
test_smiles = "COc1ccccc1S(=O)(=O)N1CC[C@]23c4c5ccc(OC)c4O[C@H]2[C@H](N(C)C(=O)/C=C/c2ccoc2)CC[C@@]3(O)[C@H]1C5"
quantitative_readout = 8.20

[[record]]
test_smiles = "COc1ccc2c3c1O[C@H]1[C@H](N(C)C(=O)/C=C/c4ccoc4)CC[C@@]4(O)[C@@H](C2)N(S(=O)(=O)c2ccccc2N(C)C)CC[C@]314.Cl"
quantitative_readout = 8.72

[[record]]
test_smiles = "COc1ccc2c3c1O[C@H]1[C@H](N(C)C(=O)/C=C/c4ccoc4)CC[C@@]4(O)[C@@H](C2)N(C(=O)/C=C/c2ccccc2)CC[C@]314"
quantitative_readout = 7.85

[[record]]
test_smiles = "COc1ccc2c3c1O[C@H]1[C@H](N(C)C(=O)/C=C/c4ccoc4)CC[C@@]4(O)[C@@H](C2)N(S(=O)(=O)c2ccccc2C)CC[C@]314"
quantitative_readout = 8.77

[[record]]
test_smiles = "CN(C(=O)/C=C/c1ccoc1)[C@@H]1CC[C@@]2(O)[C@H]3Cc4cccc5c4[C@@]2(CCN3CC2CC2)[C@H]1O5"
quantitative_readout = 5.90

[[record]]
test_smiles = "COc1ccc2c3c1O[C@H]1[C@H](N(C)C(=O)/C=C/c4ccoc4)CC[C@@]4(O)[C@@H](C2)N(S(=O)(=O)c2ccccc2C#N)CC[C@]314"
quantitative_readout = 8.71

[[record]]
test_smiles = "COc1ccc2c3c1O[C@H]1[C@H](N(C)C(=O)/C=C/c4ccoc4)CC[C@@]4(O)[C@@H](C2)N(S(=O)(=O)c2ccc(F)cc2)CC[C@]314"
quantitative_readout = 8.39

[[record]]
test_smiles = "COc1cccc(S(=O)(=O)N2CC[C@]34c5c6ccc(OC)c5O[C@H]3[C@H](N(C)C(=O)/C=C/c3ccoc3)CC[C@@]4(O)[C@H]2C6)c1"
quantitative_readout = 8.61

[[record]]
test_smiles = "COc1ccc2c3c1O[C@H]1[C@H](N(C)C(=O)/C=C/c4ccoc4)CC[C@@]4(O)[C@@H](C2)N(S(=O)(=O)c2ccc(C)cc2)CC[C@]314"
quantitative_readout = 8.23

[[record]]
test_smiles = "COc1ccc2c3c1O[C@H]1[C@H](N(C)C(=O)/C=C/c4ccoc4)CC[C@@]4(O)[C@@H](C2)N(S(=O)(=O)c2cccc(Cl)c2)CC[C@]314"
quantitative_readout = 8.46

[[record]]
test_smiles = "COc1ccc2c3c1O[C@H]1[C@H](N(C)C(=O)/C=C/c4ccoc4)CC[C@@]4(O)[C@@H](C2)N(S(=O)(=O)c2ccc(Br)cc2)CC[C@]314"
quantitative_readout = 8.21


* * *

# Ki per entry for Mu-type opioid receptor (Homo sapiens, UniProt P35372)
property_label: Ki

[[record]]
molecule = "COc1ccc2c3c1O[C@H]1[C@H](N(C)C(=O)/C=C/c4ccoc4)CC[C@@]4(O)[C@@H](C2)N(C(=O)/C=C/c2ccccc2)CC[C@]314"
result = "> 1000 nM"

[[record]]
molecule = "CN(C(=O)/C=C/c1ccoc1)[C@@H]1CC[C@@]2(O)[C@H]3Cc4ccc(O)c5c4[C@@]2(CCN3CC2CC2)[C@H]1O5.Cl [NALFURAFINE HYDROCHLORIDE]"
result = "5.99 nM"

[[record]]
molecule = "COc1ccc2c3c1O[C@H]1[C@H](N(C)C(=O)/C=C/c4ccoc4)CC[C@@]4(O)[C@@H](C2)N(S(=O)(=O)c2ccc(N(C)C)cc2)CC[C@]314.Cl"
result = "> 1000 nM"


* * *

Molecular target: Orexin/Hypocretin receptor type 1 (Homo sapiens, UniProt O43613)
Sequence (O43613 whole entry): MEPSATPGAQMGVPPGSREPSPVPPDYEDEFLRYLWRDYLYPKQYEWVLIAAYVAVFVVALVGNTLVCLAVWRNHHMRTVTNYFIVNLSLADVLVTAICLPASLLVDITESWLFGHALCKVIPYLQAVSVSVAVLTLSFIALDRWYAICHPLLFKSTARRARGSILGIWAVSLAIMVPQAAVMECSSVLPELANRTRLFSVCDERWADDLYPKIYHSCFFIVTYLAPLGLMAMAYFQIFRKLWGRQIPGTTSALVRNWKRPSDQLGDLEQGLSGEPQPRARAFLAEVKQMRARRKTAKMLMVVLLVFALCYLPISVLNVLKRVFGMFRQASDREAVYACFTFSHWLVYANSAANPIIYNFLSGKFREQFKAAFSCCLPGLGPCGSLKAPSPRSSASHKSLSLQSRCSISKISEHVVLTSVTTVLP
Assay: Antagonist activity at human OX1R expressed in CHOK1 cells assessed as inhibition of orexin A-induced intracellular calcium level preincubated for 15 mins followed by orexin A addition by Fura-2-AM dye based fluorescence assay
pKi: −log10 of the molar value.
property_label: pKi

[[record]]
molecule = "COc1ccc2c3c1O[C@H]1[C@H](N(C)C(=O)/C=C/c4ccoc4)CC[C@@]4(O)[C@@H](C2)N(C(=O)OC(C)(C)C)CC[C@]314"
property_label = "pKi"
quantitative_readout = 8.38

[[record]]
molecule = "COc1ccc2c3c1O[C@H]1[C@H](N(C)C(=O)/C=C/c4ccoc4)CC[C@@]4(O)[C@@H](C2)N(C(=O)C2CC2)CC[C@]314"
property_label = "pKi"
quantitative_readout = 7.92

[[record]]
molecule = "COc1ccc2c3c1O[C@H]1[C@H](N(C)C(=O)/C=C/c4ccoc4)CC[C@@]4(O)[C@@H](C2)N(S(=O)(=O)c2ccccc2)CC[C@]314"
property_label = "pKi"
quantitative_readout = 8.09

[[record]]
molecule = "COc1ccc2c3c1O[C@H]1[C@H](N(C)C(=O)/C=C/c4ccoc4)CC[C@@]4(O)[C@@H](C2)N(S(=O)(=O)c2ccccc2C(F)(F)F)CC[C@]314"
property_label = "pKi"
quantitative_readout = 8.69

[[record]]
molecule = "COc1ccc2c3c1O[C@H]1[C@H](N(C)C(=O)/C=C/c4ccoc4)CC[C@@]4(O)[C@@H](C2)N(S(=O)(=O)c2cccc(Br)c2)CC[C@]314"
property_label = "pKi"
quantitative_readout = 8.64

[[record]]
molecule = "CN(C(=O)/C=C/c1ccoc1)[C@@H]1CC[C@@]2(O)[C@H]3Cc4ccc(O)c5c4[C@@]2(CCN3CC2CC2)[C@H]1O5.Cl [NALFURAFINE HYDROCHLORIDE]"
property_label = "pKi"
quantitative_readout = 6.60

[[record]]
molecule = "COc1ccc2c3c1O[C@H]1[C@H](N(C)C(=O)/C=C/c4ccoc4)CC[C@@]4(O)[C@@H](C2)N(S(=O)(=O)c2ccc(C#N)cc2)CC[C@]314"
property_label = "pKi"
quantitative_readout = 7.86

[[record]]
molecule = "COc1ccc2c3c1O[C@H]1[C@H](N(C)C(=O)/C=C/c4ccccn4)CC[C@@]4(O)[C@@H](C2)N(S(=O)(=O)c2ccccc2N(C)C)CC[C@]314"
property_label = "pKi"
quantitative_readout = 8.87

[[record]]
molecule = "COc1ccc2c3c1O[C@H]1[C@H](N(C)C(=O)/C=C/c4ccoc4)CC[C@@]4(O)[C@@H](C2)N(S(=O)(=O)c2c(C)cc(C)cc2C)CC[C@]314"
property_label = "pKi"
quantitative_readout = 8.38

[[record]]
molecule = "COc1ccc2c3c1O[C@H]1[C@H](N(C)C(=O)/C=C/c4ccoc4)CC[C@@]4(O)[C@@H](C2)N(S(=O)(=O)c2cccc(C)c2)CC[C@]314"
property_label = "pKi"
quantitative_readout = 8.53

[[record]]
molecule = "CCCCS(=O)(=O)N1CC[C@]23c4c5ccc(OC)c4O[C@H]2[C@H](N(C)C(=O)/C=C/c2ccoc2)CC[C@@]3(O)[C@H]1C5"
property_label = "pKi"
quantitative_readout = 8.23

[[record]]
molecule = "COc1ccc2c3c1O[C@H]1[C@H](N(C)C(=O)/C=C/c4ccoc4)CC[C@@]4(O)[C@@H](C2)N(S(=O)(=O)c2ccc(N(C)C)cc2)CC[C@]314.Cl"
property_label = "pKi"
quantitative_readout = 7.89

